TESTED_TARGET: UniProt:Q92918
pKi: −log10 of the molar value.
Listing of recorded pKi by entry.
QUANTITY: pKi

smiles_string=CN1CCN(c2ccc(-c3n[nH]c4cc(=O)n(-c5ccccc5F)cc34)cc2)CC1 quantity=pKi value_measured="≥ 7.00"
smiles_string=CN1CCN(c2ccc(-c3n[nH]c4cc(=O)n(CC5CCCCC5)cc34)cc2)CC1 quantity=pKi value_measured="6.30 to 7.00"
smiles_string=CN1CCN(c2ccc(-c3n[nH]c4cc(=O)n(C5CCCCC5)cc34)cc2)CC1 quantity=pKi value_measured="6.30 to 7.00"
smiles_string=COc1ccccc1-n1cc2c(-c3ccc(N4CCN(C)CC4)cc3)n[nH]c2cc1=O quantity=pKi value_measured="≥ 7.00"

---

TESTED_TARGET: HPK1 (Homo sapiens (Human))
Sequence (Q92918 1-346): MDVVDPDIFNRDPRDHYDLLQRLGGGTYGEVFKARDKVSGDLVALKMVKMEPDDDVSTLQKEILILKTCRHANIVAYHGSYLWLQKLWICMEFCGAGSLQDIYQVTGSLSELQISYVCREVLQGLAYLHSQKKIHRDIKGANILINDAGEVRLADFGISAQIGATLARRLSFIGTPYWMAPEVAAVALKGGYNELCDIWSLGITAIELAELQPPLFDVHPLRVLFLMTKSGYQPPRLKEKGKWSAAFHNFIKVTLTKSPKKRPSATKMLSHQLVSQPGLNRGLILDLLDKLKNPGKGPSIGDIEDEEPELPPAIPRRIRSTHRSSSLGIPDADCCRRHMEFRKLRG
Listing of entries alongside the reported Ki.
QUANTITY: Ki

compound=CN1CCN(c2ccc(-c3n[nH]c4cc(=O)n(-c5ccccc5)cc34)cc2)CC1 quantity=Ki value_measured="100 to 500 nM"
compound="CC1OCCCC1n1cc2c(-c3ccc(N4CCN(C)CC4)cc3)n[nH]c2cc1=O (stereo not shown)" quantity=Ki value_measured="100 to 500 nM"
compound=Cc1ccccc1-n1cc2c(-c3ccc(N4CCN(C)CC4)cc3)n[nH]c2cc1=O quantity=Ki value_measured="≤ 100 nM"
compound="CC(c1ccccc1C(F)(F)F)n1cc2c(-c3ccc(N4CCN(C)CC4)cc3)n[nH]c2cc1=O (stereo not shown)" quantity=Ki value_measured="≤ 100 nM"

Hello, the source for this data is patent US10280164B2, in case you need it.
